test: Plasma pharmacokinetics after single oral dose of Δ8-THCV in MCT oil (LC-MS/MS, non-compartmental analysis); assay type: in vivo, human; settings: human, plasma, po, 50 mg, 50 mg single oral Δ8-THCV in MCT oil; Mean (±SD)
Each entry below carries its recorded Cmax.

[
  {
    "Compound": "CCCc1cc(O)c2c(c1)OC(C)(C)[C@@H]1CC=C(C(=O)O)C[C@@H]21",
    "Cmax": "324 ng/mL"
  },
  {
    "Compound": "CCCc1cc(O)c2c(c1)OC(C)(C)[C@@H]1CC=C(C)C[C@@H]21 [Δ8-THCV, Δ8-tetrahydrocannabivarin]",
    "Cmax": "10 ng/mL"
  },
  {
    "Compound": "CCCc1cc(O)c2c(c1)OC(C)(C)[C@@H]1CCC(C(=O)O)=C[C@@H]21",
    "Cmax": "8.8 ng/mL"
  },
  {
    "Compound": "CCCc1cc(O)c2c(c1)OC(C)(C)[C@@H]1CC=C(CO)C[C@@H]21 (racemic) [11-OH-Δ8-THCV, (±)-11-hydroxy-Δ8-THCV]",
    "Cmax": "2 ng/mL"
  }
]
